# Tested on: HIF2α-dependent transcription in 786-O-HRE-Luc cells
# assay explanation: In vitro cellular hypoxia response element (HRE) reporter gene assay (RGA) for HIF2α
# Type: cell-based, human
# cond: Homo sapiens, 24 hours incubation
Field: label. Allowed values: yes (1) (IC50 < 300 nM) or no (0) (IC50 >= 300 nM).

                                    molecule  qualitative_label
 0  FC(F)OC1=CC(C(F)(F)F)=CN2C[C@@]3(CCCc4cc(Br)ccc43)N=C12 [Example 11]            yes (1)
 1  Fc1ccc2c(c1Cl)CCC[C@@]21CN2C=C(C(F)(F)F)C=C(OC(F)F)C2=N1 [Example 82]            yes (1)
 2  FCOC1=CC(C(F)(F)F)=CN2C[C@@]3(CCSc4c3cnc(C(F)(F)F)c4F)N=C12 [Example 114]             no (0)
 3  Fc1ccc2c(c1F)OCC[C@@]21CN2C=C(C(F)(F)F)C=C(OC(F)F)C2=N1 [Example 45]             no (0)
 4  COc1ccc2c(c1F)CCC[C@@]21CN2C=C(C(F)(F)F)C=C(F)C2=N1 [Example 76]             no (0)
 5  N#CC1=CN2C[C@@]3(CCCc4c3ccc(F)c4F)N=C2C(OC(F)F)=C1 [Example 91]            yes (1)
 6  FC(F)OC1=CC(C(F)(F)F)=CN2C[C@@]3(CCOc4c(C(F)(F)F)cccc43)N=C12 [Example 104]             no (0)
 7  FCOC1=CC(C(F)(F)F)=CN2C[C@@]3(CCOc4c3ccc(Br)c4F)N=C12 [Example 42]            yes (1)
 8  N#CC1=CN2C[C@@]3(CCc4cc(I)ccc43)N=C2C(OC(F)F)=C1 [Example 73]             no (0)
 9  FC(F)(F)C1=CN2C[C@@]3(CCOc4cc(C(F)(F)F)ccc43)N=C2C(Cl)=C1 [Example 53]             no (0)
10  [2H]C1C([2H])([2H])Sc2c(F)cccc2[C@]12CN1C=C(C#N)C=C(OC(F)F)C1=N2 (some centres unmarked) [Example 109]            yes (1)
11  Fc1c(SC(F)F)ccc2c1OCC[C@@]21CN2C=C(C(F)(F)F)C=C(OC(F)F)C2=N1 [Example 106]            yes (1)
12  Fc1c(C(F)(F)F)ncc2c1SCC[C@@]21CN2C=C(C(F)(F)F)C=C(OC(F)F)C2=N1 [Example 67]            yes (1)
13  Fc1ccc2c(c1F)CCC[C@@]21CN2C=C(C(F)(F)F)C=C(OC(F)F)C2=N1 [Example 85]            yes (1)
14  N#CC1=CN2C[C@@]3(CCC(F)(F)c4c3ccc(Br)c4F)N=C2C(OC(F)F)=C1 [Example 92]             no (0)
15  N#Cc1ccc2c(c1F)C(F)(F)CC[C@@]21CN2C=C(C(F)(F)F)C=C(OC(F)F)C2=N1 [Example 15]             no (0)
16  O=C1CC[C@@]2(CN3C=C(C(F)(F)F)C=C(OC(F)F)C3=N2)c2ccc(Br)c(F)c21 [Example 8]            yes (1)
17  Cc1ccc2c(c1F)OCC[C@@]21CN2C=C(C(F)(F)F)C=C(OC(F)F)C2=N1 [Example 46]            yes (1)
18  Fc1c(OC(F)(F)F)ccc2c1OCC[C@@]21CN2C=C(C(F)(F)F)C=C(OC(F)F)C2=N1 [Example 105]            yes (1)
19  Fc1c(C(F)(F)F)ccc2c1COCC21CN2C=C(C(F)(F)F)C=C(OC(F)F)C2=N1 (racemic) [Example 108]             no (0)
20  FCOC1=CC(C(F)(F)F)=CN2C[C@@]3(CCOc4c(Cl)cccc43)N=C12 [Example 95]            yes (1)
21  Fc1c(Br)ccc2c1CCC[C@@]21CN2C=C(C(F)(F)F)C=C(OC(F)F)C2=N1 [Example 7]            yes (1)
22  N#CC1=CN2C[C@@]3(CCSc4c(F)cccc43)N=C2C(OC(F)F)=C1 [Example 66]             no (0)
23  Fc1c(OC(F)F)ccc2c1OCC[C@@]21CN2C=C(C(F)(F)F)C=C(OC(F)F)C2=N1 [Example 54]             no (0)
24  FC(F)OC1=CC(C(F)(F)F)=CN2C[C@@]3(CCCc4c(Cl)cccc43)N=C12 [Example 88]            yes (1)
25  O=C1c2c(ccc(Br)c2F)[C@@]2(C[C@H]1F)CN1C=C(C(F)(F)F)C=C(OC(F)F)C1=N2 [Example 9]             no (0)
26  Fc1ccc2c(c1F)CC[C@@]21CN2C=C(C(F)(F)F)C=C(OC(F)F)C2=N1 [Example 2]             no (0)
27  N#Cc1ccc2c(c1F)[C@@H](F)CC[C@@]21CN2C=C(C(F)(F)F)C=C(OC(F)F)C2=N1 [Example 25]            yes (1)
28  FC(F)OC1=CC(C(F)(F)F)=CN2C[C@@]3(CCOc4c3ccc(Br)c4Cl)N=C12 [Example 100]            yes (1)
29  Fc1c(C(F)(F)F)ccc2c1OCC[C@@]21CN2C=C(C(F)(F)F)C=C(OC(F)F)C2=N1 [Example 40]            yes (1)
30  Fc1c(C(F)(F)F)ccc2c1CC[C@@]21CN2C=C(C(F)(F)F)C=C(OC(F)F)C2=N1 [Example 74]             no (0)

Where these numbers come from: patent US12226405B2
